System: Mycobacterium tuberculosis Erdman (autoluminescent)
Assay: total FIC90 (Loewe) at 90% inhibition, three-drug combination (log2); higher = more antagonistic
Conditions: in vitro model: acidic pH 5.7; time point: terminal (~4-5 doublings, model-specific)
measure: total FIC90

compound	experimentalResult
COc1nc2ccc(Br)cc2cc1[C@@H](c1ccccc1)[C@@](O)(CCN(C)C)c1cccc2ccccc12 [bedaquiline] + CC(C)/N=c1\cc2n(-c3ccc(Cl)cc3)c3ccccc3nc-2cc1Nc1ccc(Cl)cc1 [clofazimine] + O=[N+]([O-])c1cn2c(n1)OC[C@@H](OCc1ccc(OC(F)(F)F)cc1)C2 [pretomanid]	0.703
COc1nc2ccc(Br)cc2cc1[C@@H](c1ccccc1)[C@@](O)(CCN(C)C)c1cccc2ccccc12 [bedaquiline] + CC(=O)NC[C@H]1CN(c2ccc(N3CCOCC3)c(F)c2)C(=O)O1 [linezolid] + CO[C@H]1/C=C/O[C@@]2(C)Oc3c(C)c(O)c4c(O)c(c(/C=N/N5CCN(C6CCCC6)CC5)c(O)c4c3C2=O)NC(=O)/C(C)=C\C=C\[C@H](C)[C@H](O)[C@@H](C)[C@@H](O)[C@@H](C)[C@H](OC(C)=O)[C@@H]1C [rifapentine]	0.662
COc1nc2ccc(Br)cc2cc1[C@@H](c1ccccc1)[C@@](O)(CCN(C)C)c1cccc2ccccc12 [bedaquiline] + CC[C@@H](CO)NCCN[C@@H](CC)CO [ethambutol] + COc1c(N2C[C@@H]3CCCN[C@@H]3C2)c(F)cc2c(=O)c(C(=O)O)cn(C3CC3)c12 [moxifloxacin]	0.318
CC[C@@H](CO)NCCN[C@@H](CC)CO [ethambutol] + COc1c(N2C[C@@H]3CCCN[C@@H]3C2)c(F)cc2c(=O)c(C(=O)O)cn(C3CC3)c12 [moxifloxacin] + NC(=O)c1cnccn1 [pyrazinamide]	0.0827

----------
List of total FIC50 values.
System: Mycobacterium tuberculosis Erdman (autoluminescent)
Experiment: total FIC50 (Loewe) at 50% inhibition, three-drug combination (log2); higher = more antagonistic
Details: in vitro model: valerate; time point: terminal (~4-5 doublings, model-specific)

compound	total FIC50
CC(C)/N=c1\cc2n(-c3ccc(Cl)cc3)c3ccccc3nc-2cc1Nc1ccc(Cl)cc1 [clofazimine] + CC(=O)NC[C@H]1CN(c2ccc(N3CCOCC3)c(F)c2)C(=O)O1 [linezolid] + CO[C@H]1/C=C/O[C@@]2(C)Oc3c(C)c(O)c4c(O)c(c(/C=N/N5CCN(C)CC5)c(O)c4c3C2=O)NC(=O)/C(C)=C\C=C\[C@H](C)[C@H](O)[C@@H](C)[C@@H](O)[C@@H](C)[C@H](OC(C)=O)[C@@H]1C [rifampicin]	0.756
CC[C@@H](CO)NCCN[C@@H](CC)CO [ethambutol] + CC(=O)NC[C@H]1CN(c2ccc(N3CCOCC3)c(F)c2)C(=O)O1 [linezolid] + CO[C@H]1/C=C/O[C@@]2(C)Oc3c(C)c(O)c4c(O)c(c(/C=N/N5CCN(C)CC5)c(O)c4c3C2=O)NC(=O)/C(C)=C\C=C\[C@H](C)[C@H](O)[C@@H](C)[C@@H](O)[C@@H](C)[C@H](OC(C)=O)[C@@H]1C [rifampicin]	0.622
COc1nc2ccc(Br)cc2cc1[C@@H](c1ccccc1)[C@@](O)(CCN(C)C)c1cccc2ccccc12 [bedaquiline] + CC(C)/N=c1\cc2n(-c3ccc(Cl)cc3)c3ccccc3nc-2cc1Nc1ccc(Cl)cc1 [clofazimine] + CC[C@@H](CO)NCCN[C@@H](CC)CO [ethambutol]	0.16
CC(C)/N=c1\cc2n(-c3ccc(Cl)cc3)c3ccccc3nc-2cc1Nc1ccc(Cl)cc1 [clofazimine] + CC[C@@H](CO)NCCN[C@@H](CC)CO [ethambutol] + CC(=O)NC[C@H]1CN(c2ccc(N3CCOCC3)c(F)c2)C(=O)O1 [linezolid]	0.302
COc1nc2ccc(Br)cc2cc1[C@@H](c1ccccc1)[C@@](O)(CCN(C)C)c1cccc2ccccc12 [bedaquiline] + CC[C@@H](CO)NCCN[C@@H](CC)CO [ethambutol] + NNC(=O)c1ccncc1 [isoniazid]	0.744
CC[C@@H](CO)NCCN[C@@H](CC)CO [ethambutol] + COc1c(N2C[C@@H]3CCCN[C@@H]3C2)c(F)cc2c(=O)c(C(=O)O)cn(C3CC3)c12 [moxifloxacin] + CO[C@H]1/C=C/O[C@@]2(C)Oc3c(C)c(O)c4c(O)c(c(/C=N/N5CCN(C6CCCC6)CC5)c(O)c4c3C2=O)NC(=O)/C(C)=C\C=C\[C@H](C)[C@H](O)[C@@H](C)[C@@H](O)[C@@H](C)[C@H](OC(C)=O)[C@@H]1C [rifapentine]	0.843
COc1nc2ccc(Br)cc2cc1[C@@H](c1ccccc1)[C@@](O)(CCN(C)C)c1cccc2ccccc12 [bedaquiline] + NNC(=O)c1ccncc1 [isoniazid] + COc1c(N2C[C@@H]3CCCN[C@@H]3C2)c(F)cc2c(=O)c(C(=O)O)cn(C3CC3)c12 [moxifloxacin]	0.672
COc1nc2ccc(Br)cc2cc1[C@@H](c1ccccc1)[C@@](O)(CCN(C)C)c1cccc2ccccc12 [bedaquiline] + NNC(=O)c1ccncc1 [isoniazid] + CO[C@H]1/C=C/O[C@@]2(C)Oc3c(C)c(O)c4c(O)c(c(/C=N/N5CCN(C)CC5)c(O)c4c3C2=O)NC(=O)/C(C)=C\C=C\[C@H](C)[C@H](O)[C@@H](C)[C@@H](O)[C@@H](C)[C@H](OC(C)=O)[C@@H]1C [rifampicin]	1.33
CC[C@@H](CO)NCCN[C@@H](CC)CO [ethambutol] + COc1c(N2C[C@@H]3CCCN[C@@H]3C2)c(F)cc2c(=O)c(C(=O)O)cn(C3CC3)c12 [moxifloxacin] + CO[C@H]1/C=C/O[C@@]2(C)Oc3c(C)c(O)c4c(O)c(c(/C=N/N5CCN(C)CC5)c(O)c4c3C2=O)NC(=O)/C(C)=C\C=C\[C@H](C)[C@H](O)[C@@H](C)[C@@H](O)[C@@H](C)[C@H](OC(C)=O)[C@@H]1C [rifampicin]	0.645
CC(C)/N=c1\cc2n(-c3ccc(Cl)cc3)c3ccccc3nc-2cc1Nc1ccc(Cl)cc1 [clofazimine] + COc1c(N2C[C@@H]3CCCN[C@@H]3C2)c(F)cc2c(=O)c(C(=O)O)cn(C3CC3)c12 [moxifloxacin] + CO[C@H]1/C=C/O[C@@]2(C)Oc3c(C)c(O)c4c(O)c(c(/C=N/N5CCN(C)CC5)c(O)c4c3C2=O)NC(=O)/C(C)=C\C=C\[C@H](C)[C@H](O)[C@@H](C)[C@@H](O)[C@@H](C)[C@H](OC(C)=O)[C@@H]1C [rifampicin]	0.91
CC(C)/N=c1\cc2n(-c3ccc(Cl)cc3)c3ccccc3nc-2cc1Nc1ccc(Cl)cc1 [clofazimine] + CC(=O)NC[C@H]1CN(c2ccc(N3CCOCC3)c(F)c2)C(=O)O1 [linezolid] + CO[C@H]1/C=C/O[C@@]2(C)Oc3c(C)c(O)c4c(O)c(c(/C=N/N5CCN(C6CCCC6)CC5)c(O)c4c3C2=O)NC(=O)/C(C)=C\C=C\[C@H](C)[C@H](O)[C@@H](C)[C@@H](O)[C@@H](C)[C@H](OC(C)=O)[C@@H]1C [rifapentine]	0.608

----------
Test system: Mycobacterium tuberculosis Erdman (autoluminescent)
Assay: AUC25, normalised area under dose response up to IC25 (three-drug combination) (fraction (0-1)); higher = more potent at low dose
Conditions: in vitro model: cholesterol-high 0.2 mM; time point: constant (~7 days, model-specific)
// AUC25 lookup, one value per entry

compound	AUC25
COc1nc2ccc(Br)cc2cc1[C@@H](c1ccccc1)[C@@](O)(CCN(C)C)c1cccc2ccccc12 [bedaquiline] + NNC(=O)c1ccncc1 [isoniazid] + CO[C@H]1/C=C/O[C@@]2(C)Oc3c(C)c(O)c4c(O)c(c(/C=N/N5CCN(C)CC5)c(O)c4c3C2=O)NC(=O)/C(C)=C\C=C\[C@H](C)[C@H](O)[C@@H](C)[C@@H](O)[C@@H](C)[C@H](OC(C)=O)[C@@H]1C [rifampicin]	0.0768
CC(C)/N=c1\cc2n(-c3ccc(Cl)cc3)c3ccccc3nc-2cc1Nc1ccc(Cl)cc1 [clofazimine] + CC[C@@H](CO)NCCN[C@@H](CC)CO [ethambutol] + CO[C@H]1/C=C/O[C@@]2(C)Oc3c(C)c(O)c4c(O)c(c(/C=N/N5CCN(C6CCCC6)CC5)c(O)c4c3C2=O)NC(=O)/C(C)=C\C=C\[C@H](C)[C@H](O)[C@@H](C)[C@@H](O)[C@@H](C)[C@H](OC(C)=O)[C@@H]1C [rifapentine]	0.0285
CC(=O)NC[C@H]1CN(c2ccc(N3CCOCC3)c(F)c2)C(=O)O1 [linezolid] + O=[N+]([O-])c1cn2c(n1)OC[C@@H](OCc1ccc(OC(F)(F)F)cc1)C2 [pretomanid] + NC(=O)c1cnccn1 [pyrazinamide]	0.108
